# protocol_details: chemical genetic growth profiling, strain panel (AID 1159580);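 further: tested at 20 µM; growth read once vehicle control cultures reached saturation at 30 °C; 1 = growth at the plate median or of vehicle wells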
# condition_notes: S. cerevisiae deletion strains, growth OD, locus YNL183C, strain NPR1
Among all 5,500 compounds or so, about 2,000 (36%) were called active. Not shown: some 18% with an inconclusive outcome. No stated cut-off is given here; in the data, active means normalized growth mostly below about 0.91 (no sharp cut-off); inconclusive means no clear call, values can overlap the other calls; inactive means mostly above about 0.92. This is one part of the list.
Lab note: assign the record to one of YES = active, NO = inactive

Please let me know the test result on file for CC(C[N+](C)(C)C)OC(N)=O (configuration not stated) .
NO

Please let me know the test result on file for OC1(C(F)(F)F)CC(C23CC4CC(CC(C4)C2)C3)=NN1 (configuration not stated) .
NO

Please let me know the test result on file for CN(C)c1ccc(C(=C2C=CC(=[N+](C)C)C=C2)c2ccc(N(C)C)cc2)cc1 .
YES

Please let me know the test result on file for CC(=O)OCC[N+](C)(C)C .
NO

Please let me know the test result on file for COC1=C(OC)C(=O)C(C/C=C(\C)CC/C=C(\C)CC/C=C(\C)CC/C=C(/C)CC/C=C(\C)CC/C=C(\C)CC/C=C(\C)CC/C=C(\C)CC/C=C(\C)CCC=C(C)C)=C(C)C1=O .
NO

Please let me know the test result on file for COC1=CC(=O)C[C@@H](C)[C@]12Oc1c(Cl)c(OC)cc(OC)c1C2=O .
NO

Please let me know the test result on file for COc1ccc2c(c1OC)C(=O)O[C@H]2[C@H]1c2cc3c(cc2CCN1C)OCO3 .
NO

Please let me know the test result on file for NC(=O)C(c1ccccc1)(c1ccccc1)C1CCN(CCc2ccc3c(c2)CCO3)C1 (configuration not stated) .
NO

Please let me know the test result on file for COc1cc(NC(=S)N(C)C)c(OC)cc1Cl .
NO

Please let me know the test result on file for COc1ccc2c(c1OC)C(=O)O[C@@H]2[C@H]1c2cc3c(cc2CCN1C)OCO3 .
NO

Please let me know the test result on file for CC(N)CCCC(C)(C)O (configuration not stated) .
NO

Please let me know the test result on file for COP(=O)(OC)OC=C(Cl)Cl .
NO

Please let me know the test result on file for CC(=O)N[C@@H](CC(C)C)C(=O)O .
NO

Please let me know the test result on file for CC1=C(C/C=C(\C)CCC[C@H](C)CCC[C@H](C)CCCC(C)C)C(=O)c2ccccc2C1=O .
NO

Please let me know the test result on file for CC(=O)OCC(=O)[C@@]1(O)CCC2C3CCC4=CC(=O)CC[C@]4(C)C3C(=O)C[C@@]21C (some centres not stated) .
NO

Please let me know the test result on file for Cc1cc(Cl)ccc1NNC(=O)c1snnc1C .
NO

Please let me know the test result on file for COc1cc(NC(=S)NC(=O)c2ccccc2)c(OC)cc1Cl .
NO

* * *

# protocol_details: chemical genetic growth profiling, strain panel (AID 1159580);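 further: tested at 20 µM; growth read once vehicle control cultures reached saturation at 30 °C; 1 = growth at the plate median or of vehicle wells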
# condition_notes: S. cerevisiae deletion strains, growth OD, locus YFR003C, strain YPI1, stronger effect = lower value
Among all 5,500 compounds or so, about 2,000 (36%) were called active. Not shown: some 18% with an inconclusive outcome. This is one part of the list.
quantity_measured: normalized growth
Number, no unit, nothing else.

Supply recorded normalized growth for O=S(=O)(Nc1cccc(CCc2ccccn2)c1)c1cc(Cl)c(Cl)cc1Cl here.
0.981

Supply recorded normalized growth for N#CC(C#N)=C(SCc1c(Cl)cccc1Cl)SCc1c(Cl)cccc1Cl here.
0.99

Supply recorded normalized growth for Cc1ccccc1C(=O)Oc1ccc(C(F)(F)F)cc1[N+](=O)[O-] here.
0.972
